The measurements presented in this section are drawn from ChEMBL document CHEMBL2390952.

Test system: TF-1
assay procedure: Selectivity ratio of EC50 for JAK2-mediated STAT5 phosphorylation in EPO-induced human TF1 cells to EC50 for JAK1-mediated STAT3 phosphorylation in IL6-induced human TF1 cells
Assay type: cell-based
Measured Ratio EC50, listed per entry.
# output: bare number, no unit

compound	observed
COC(=O)N[C@H]1CC[C@H](n2nnc3cnc4[nH]ccc4c32)CC1	4
CS(=O)(=O)N1CCC(n2nnc3cnc4[nH]ccc4c32)CC1	4.8

Value lookup for Ratio EC50; key = `N#CCCN1CCC(n2nnc3cnc4[nH]ccc4c32)CC1`
4.6

// query Ratio EC50 value for entry `CC(C)CC(=O)N[C@H]1CC[C@H](n2nnc3cnc4[nH]ccc4c32)CC1`
5

Any idea what Ratio EC50 was measured for `c1ccc(CN2CCC(n3nnc4cnc5[nH]ccc5c43)CC2)cc1` ?
3.4

What does the data say about its Ratio EC50? Entry: `CC(C)(C)OC(=O)N[C@@H]1CC[C@@H](n2nnc3cnc4[nH]ccc4c32)C1`
4.3

State the recorded Ratio EC50 for this entry: COC(=O)N[C@@H]1CC[C@@H](n2nnc3cnc4[nH]ccc4c32)C1 (racemic)
6.8

Quick one: Ratio EC50 for `c1cncc(CN2CCC(n3nnc4cnc5[nH]ccc5c43)CC2)c1` ?
2.7

State the recorded Ratio EC50 for this entry: `CC1(n2nnc3cnc4[nH]ccc4c32)CCN(S(C)(=O)=O)CC1`
15

I would be grateful if you could share the reported Ratio EC50 for `N#CCC(=O)N1CCC[C@@H](n2nnc3cnc4[nH]ccc4c32)C1` .
6.8
